# System: LOX IMVI
# METHOD NOTES: NCI-60 one-dose SRB screening
# Type: cell-based
# PROTOCOL CONDITIONS: Homo sapiens, Melanoma, 10 µM one dose, 48 h, read-out: growth percentage
# Method: The structures of the synthesized compounds 6a–h, 12a–c, 11, 13a–c, and 14a–c were submitted to the National Cancer Institute’s Developmental Therapeutics Program (NCI-DTP), and all of them were selected for preliminary in vitro anticancer activity screening against NCI-59 human cancer cell lines at a concentration of 10 µM, using the sulforhodamine B (SRB) assay to determine the growth percentage and cell viability. […]
Kindly supply the reported activity at 10 µM values for the records listed here.
Numeric answer only, unit % assumed.

query: For the compound shown here, [O-][n+]1onc(-c2ccccc2)c1COc1ccc(Nc2ncnc3c2cnn3-c2ccccc2)cc1 , give the reported activity at 10 µM.
result: 94.3

query: For the compound shown here, Cc1nc(Nc2ccc(OCc3c(-c4ccccc4)no[n+]3[O-])cc2)c2c(C)nn(-c3ccccc3)c2n1 , give the reported activity at 10 µM.
result: 96.6

query: For the compound shown here, Cc1nc(Nc2ccc(OCc3c(-c4ccccc4)no[n+]3[O-])cc2)c2cnn(-c3ccccc3)c2n1 , give the reported activity at 10 µM.
result: 97.6

query: For the compound shown here, Cc1nn(-c2ccccc2)c2ncnc(Nc3ccc(OCc4c(-c5ccccc5)no[n+]4[O-])cc3)c12 , give the reported activity at 10 µM.
result: 101

query: For the compound shown here, Cc1nn(-c2ccc(Br)cc2)c2nc(C(F)(F)F)nc(Nc3ccc(NCc4c(-c5ccccc5)no[n+]4[O-])cc3)c12 [12c] , give the reported activity at 10 µM.
result: 48.5

query: For the compound shown here, O=c1[nH]c(CCl)nc2c1cnn2-c1ccccc1 [13a] , give the reported activity at 10 µM.
result: 103

query: For the compound shown here, Cc1nn(-c2ccccc2)c2nc(CNc3ccc(NCc4c(-c5ccccc5)no[n+]4[O-])cc3)[nH]c(=O)c12 [14b] , give the reported activity at 10 µM.
result: 97.6

query: For the compound shown here, Nc1ccc(NCc2c(-c3ccccc3)no[n+]2[O-])cc1 , give the reported activity at 10 µM.
result: 107

---

# Tested on: UACC-257
# METHOD NOTES: NCI-60 one-dose SRB screening
# Format: cell-based
# PROTOCOL CONDITIONS: Homo sapiens, UACC-257, Melanoma, 10 µM one dose, 48 h, read-out: growth percentage
READOUT NAME: activity at 10 µM (%)
Numeric answer only, unit % assumed.

query: For the compound shown here, Cc1nn(-c2ccccc2)c2nc(CCl)[nH]c(=O)c12 [13b] , give the reported activity at 10 µM.
result: 98.8

query: For the compound shown here, Cc1nn(-c2ccccc2)c2nc(C(F)(F)F)nc(Nc3ccc(NCc4c(-c5ccccc5)no[n+]4[O-])cc3)c12 [12a] , give the reported activity at 10 µM.
result: 103

query: For the compound shown here, Cc1nc(Nc2ccc(OCc3c(-c4ccccc4)no[n+]3[O-])cc2)c2cnn(-c3ccccc3)c2n1 , give the reported activity at 10 µM.
result: 101

query: For the compound shown here, Cc1nc(Nc2ccc(OCc3c(-c4ccccc4)no[n+]3[O-])cc2)c2c(C)nn(-c3ccccc3)c2n1 , give the reported activity at 10 µM.
result: 109

query: For the compound shown here, Cc1nn(-c2ccc(Br)cc2)c2nc(CNc3ccc(NCc4c(-c5ccccc5)no[n+]4[O-])cc3)[nH]c(=O)c12 [14c] , give the reported activity at 10 µM.
result: 101

query: For the compound shown here, Nc1ccc(NCc2c(-c3ccccc3)no[n+]2[O-])cc1 , give the reported activity at 10 µM.
result: 99.2

query: For the compound shown here, Cc1nn(-c2ccc(Br)cc2)c2ncnc(Nc3ccc(OCc4c(-c5ccccc5)no[n+]4[O-])cc3)c12 , give the reported activity at 10 µM.
result: 97.1

Hello, the source for this data is paper PMC8880564, in case you need it.
